B1: RNA-binding E3 ubiquitin-protein ligase MEX3C, residues 325 to 391; numbered along this chain, Q5U5Q3 (parent)
chain: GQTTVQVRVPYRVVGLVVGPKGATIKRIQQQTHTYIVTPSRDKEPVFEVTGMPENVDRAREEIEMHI

# Variants of: B1
# Protocol summary: abundance fitness (aPCA) (normalised: wild type 0, dead -1); higher = more abundant; growth selection in yeast, the domain comes from the species named
# Protocol conditions: Homo sapiens
Would you kindly list abundance fitness for each of these variants?
Respond using a number only.

If you can, please state the reported abundance fitness value of `R27K` .
0.111

What would you report for `T24Y` ?
-0.589

What would you report for `I36V` ?
-0.471

What would you report for `V56I` ?
-0.21

What would you report for `E54D` ?
-0.119

What would you report for `T38G` ?
0.005

What would you report for `K26V` ?
-0.747

What would you report for `A23F` ?
-0.868

What would you report for `N55Y` ?
-0.811

What would you report for `Q30R` ?
-0.126

What would you report for `K26M` ?
-0.212

What would you report for `F47M` ?
-0.808

What would you report for `H33Y` ?
-0.396

What would you report for `E54A` ?
-0.079

What would you report for `P53D` ?
-0.597

What would you report for `T50Q` ?
-0.624

What would you report for `G22H` ?
-0.769

What would you report for `R41F` ?
-0.343

What would you report for `G22A` ?
-0.489

What would you report for `E54S` ?
-0.213

What would you report for `K43S` ?
0.12

What would you report for `H33Q` ?
0.088

What would you report for `P20Y` ?
-0.266

What would you report for `E54Y` ?
-0.382

What would you report for `K43G` ?
0.108

What would you report for `V49D` ?
-0.71

What would you report for `T34W` ?
-0.947

What would you report for `P39K` ?
-0.149

What would you report for `P39A` ?
-0.497

What would you report for `K21W` ?
-0.458

What would you report for `D42T` ?
-0.245

What would you report for `H33T` ?
-0.744

What would you report for `Y35G` ?
-0.511

What would you report for `H33N` ?
0.171

What would you report for `R27I` ?
-0.901

What would you report for `Y35V` ?
0.129

What would you report for `G19Y` ?
-0.159

What would you report for `T38S` ?
-0.01

What would you report for `Q31T` ?
-0.261

What would you report for `R27C` ?
-0.832

What would you report for `N55S` ?
-0.426

What would you report for `E54P` ?
-0.235

What would you report for `P53V` ?
-0.734

What would you report for `T24L` ?
-0.875

What would you report for `V46C` ?
-0.645

What would you report for `K26H` ?
-0.66

Source of measurements: the Human Domainome abundance scans (Beltran et al. 2025)
